B1: GAGE1 (parent)
chain: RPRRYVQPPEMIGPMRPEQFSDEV

# Variants of: B1
# PROTOCOL DESCRIPTION: protein stability index of a GFP-peptide fusion (GPS, HEK-293T) (PSI 1-6); higher = more stable;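 note: lentivirally expressed fusions sorted by FACS into six bins by GFP to DsRed ratio, PSI derived from sequencing read proportions per bin multiplied by bin number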
# MEASUREMENT SETUP: c terminus: a fixed tail appended
Please respond with reported protein stability index for every item in the list.
Give bare numbers.

// batch mode: one protein stability index value per listed entry
1. R4E
2. Q19R
3. V6P
4. R4A
5. M11N
6. V24D
7. M11Y

Completion:
3.92
3.71
4.06
3.94
3.38
4.09
3.82

Take each entry in turn and give its protein stability index.
1. F20D
2. V24S
3. Q7E
4. I12N
5. E10T

Completion:
1. 4.91
2. 4.21
3. 3.86
4. 4.71
5. 4.33

Each variant below has a reported value. Please supply its protein stability index.
1. E18W
2. V6T
3. P14M
4. Q7H
5. Q7Y

Completion:
3.16
3.66
3.6
4.14
3.73

The measured values listed here are drawn from the supplement of paper PMC10567573.
